# Test system: 501Mel-GP cells (Dabrafenib-resistant)
# Method: Kinase inhibitor library screening, PrestoBlue cell viability, 1 or 10 μM, 72 h
# Details: 501Mel GP, 10μΜ, 72 h
Where a name gives a salt, the structure may show the parent alone.
Assignment: determine reported cell viability (kinase inhibitor library screening) for the given molecules.
Just the number plus its unit, please.

In the examples that follow, each entry is paired with its recorded cell viability (kinase inhibitor library screening).
[[record]]
molecule = "Cc1nc(N)sc1-c1ccnc(Nc2ccc(N3CCOCC3)cc2)n1"
reported_value = "44.7%"

[[record]]
molecule = "CC(C)c1cnn2c(NCc3ccccc3)cc(NCCCCCCN)nc12.Cl [BS-181 HCl]"
reported_value = "87.7%"

[[record]]
molecule = "CCc1cccc(CC)c1NC(=O)N1Cc2n[nH]c(NC(=O)c3ccc(N4CCN(C)CC4)cc3)c2C1"
reported_value = "79.1%"

[[record]]
molecule = "O=C(O)c1ccc(Nc2ncc3c(n2)-c2ccc(Cl)cc2C(c2c(F)cccc2F)=NC3)cc1"
reported_value = "65.6%"

[[record]]
molecule = "COc1cc2c(Nc3ccc(NC(=O)c4ccccc4)cc3)ncnc2cc1OCCCN1CCOCC1"
reported_value = "2.3%"

[[record]]
molecule = "CCS(=O)(=O)Nc1ccc2c(c1)/C(=C(/Nc1ccc(CN3CCCCC3)cc1)c1ccccc1)C(=O)N2 [Hesperadin, reference compound]"
reported_value = "46.9%"


I'm hoping you can list cell viability (kinase inhibitor library screening) for every molecule here, please.
1. O=C(NC1CCNCC1)c1[nH]ncc1NC(=O)c1c(Cl)cccc1Cl [AT7519, reference compound]
2. CN1CC[C@H](c2c(O)cc(O)c3c(=O)cc(-c4ccccc4Cl)oc23)[C@H](O)C1 [Flavopiridol hydrochloride]

0.428%
0.4%

---

Assignment: determine reported cell viability, 501Mel XP, 10μΜ for the given molecules.
# Tested on: 501Mel-XP cells (Vemurafenib-resistant)
# Method: Kinase inhibitor library screening, PrestoBlue cell viability, 1 or 10 μM, 72 h
# Details: 501Mel XP; 10μΜ; 72 h; in %
Numbers only.

In the examples that follow, each entry is paired with its recorded cell viability, 501Mel XP, 10μΜ.
[[record]]
molecule = "O=C1NC(=O)C(c2ccccc2[N+](=O)[O-])=C1Nc1ccc(O)c(Cl)c1 [SB 415286]"
reported_value = 76.3

[[record]]
molecule = "COc1cccc(-c2cc(=O)c3ccccc3o2)c1N [PD98059]"
reported_value = 80.0

[[record]]
molecule = "CCOc1cc2ncc(C#N)c(Nc3ccc(OCc4ccccn4)c(Cl)c3)c2cc1NC(=O)/C=C/CN(C)C [Neratinib (HKI-272)]"
reported_value = 0.0171

[[record]]
molecule = "N#C/C(=C\\c1ccc(O)c(O)c1)C(=O)NCc1ccccc1 [AG-490]"
reported_value = 79.3

[[record]]
molecule = "C#Cc1cccc(Nc2ncnc3cc(OCCOC)c(OCCO)cc23)c1 [Desmethyl Erlotinib (CP-473420)]"
reported_value = 41.7

[[record]]
molecule = "CN(C)Cc1cccc(N/C(=C2\\C(=O)Nc3cc(C(=O)N(C)C)ccc32)c2ccccc2)c1 [BIX 02189]"
reported_value = 82.6

[[record]]
molecule = "COc1cc2ncnc(Nc3cccc(Br)c3)c2cc1OC.Cl [PD153035 HCl]"
reported_value = 16.6

[[record]]
molecule = "CNC(=O)c1ccccc1Nc1nc(Nc2ccc(N3CCOCC3)cc2OC)ncc1Cl [NVP-TAE226]"
reported_value = 20.7


I'm hoping you can list cell viability, 501Mel XP, 10μΜ for every molecule here, please.
1. CC(C)(C)c1cc(C=C(C#N)C#N)cc(Br)c1O [AG-1024]
2. COc1cc2ncnc(Nc3cccc(Cl)c3)c2cc1OC [AG-1478 (Tyrphostin AG-1478)]

1. 85.0
2. 48.5

Give the reported value of cell viability, 501Mel XP, 10μΜ for this record: CN(c1ncccc1CNc1nc(Nc2ccc3c(c2)CC(=O)N3)ncc1C(F)(F)F)S(C)(=O)=O [PF-00562271]
0.458
